Test system: COLO 205 colon
Assay: NCI-60 one-dose screen, 48 h (100 = growth as untreated, 0 = no growth, -100 = all killed)
Settings: 10 µM unless noted
Procedure: Cells are grown in 96 well plates and exposed to the test compound for 48 hours. Compounds are tested at a single concentration, which is 10^-5 M for most compounds. The reported endpoint is percent growth (GI% or GIPRCNT), where numbers from 0 - 100% represent growth inhibition, and numbers from -100% - 0 represent cell death. For example, a value of 40 represents 60% growth inhibition. A value of 0 means no net growth occurred over the course of the experiment. […]
Compounds without any hit were thinned out: in the full panel of roughly 83,000, 20% have a hit.
Metric name: growth (%)
Field format: number, assumed %, no unit text.

Give growth (COLO 205 colon) of the following molecule: "NS(=O)(=O)c1ccc(Nc2nc(SCc3ccccc3)nc3ccccc23)cc1"
79.6

Lookup: growth / COLO 205 colon / "CC[C@H](CO)Nc1ccc2ncc(C#Cc3cncc(C(=O)Nc4ccc(CN5CCN(C)CC5)c(C(F)(F)F)c4)c3)n2n1"
-92.5

Short answer please: growth, COLO 205 colon, entry "CCCCCc1ccc(S(=O)(=O)Nc2cccc(-c3csc(NC(=O)CN4CCN(C)CC4)n3)c2)cc1"
31

Then there is this molecule:
// map "COc1ccccc1NC1=C(Cl)C(=O)c2nc(C)ccc2C1=O" to recorded growth (system: COLO 205 colon)
111

----------
system: SNB-19 CNS; experiment: NCI-60 one-dose screen, 48 h (100 = growth as untreated, 0 = no growth, -100 = all killed); settings: 10 µM unless noted
Compounds without any hit were thinned out: in the full panel of roughly 83,000, 20% have a hit.
Recorded growth values for a group of compounds are listed next.
# value in %; strip the unit string

Look up growth for this compound: "CNC(=O)c1cc(-c2ccc(NS(=O)(=O)c3ccc(C)cc3)cc2)nc2cccnc12"
99.8

Quick one: growth of "NC(=O)c1c(NC(=O)c2ccc(F)cc2F)sc2c1CCC(=O)C2" ?
59.3

So what's the measured growth for this one? "Cc1ccc(-c2cc3nc(C(Cl)Cl)nc(C)n3n2)cc1"
104

What does the record list as growth for "O=C(CN1CCN(c2cc(=O)n(-c3ccccc3)c3ccccc23)CC1)Nc1nc(-c2ccc(Cl)cc2)cs1" ?
64

Continuing:
Would you kindly share the measured growth for COc1ccc(/C=N/NC(=O)c2cn(C3CC3)c3c(OC)c(N4CC5CCCNC5C4)c(F)cc3c2=O)cc1 (stereo not given) ?
96.6

----------
tested on: 786-0 renal; test: NCI-60 one-dose screen, 48 h (100 = growth as untreated, 0 = no growth, -100 = all killed); conditions: 10 µM unless noted
This is part of a sample that, as a whole, favours compounds with a hit. Of some 83,000 tested, about 20% had one in any assay. The source made the active and inactive calls. The calls were made as follows: active = growth percent below 10; inactive = the rest.
Reported growth values for a set of compounds

Can you look up growth on 786-0 renal for "Fc1ccc(-c2cc3nc(C(Cl)Cl)nc(-c4ccc(F)cc4)n3n2)cc1" ?
51.4% (inactive)

Give recorded growth with 786-0 renal for the following compound: "N#C/C(=C\c1ccc(-c2ccc(Cl)cc2Cl)o1)c1ccc(F)cc1"
94% (inactive)

Provide the documented growth with 786-0 renal as the system for "Cc1[nH]c(C(=O)Nc2ccccc2OCc2cccc(C(=O)N3CCC[C@@H](N)C3)c2)c(Cl)c1Cl"
-72.6% (active)

Record "CC(=O)c1cc(C(=O)c2ccc(Br)cc2)n2cc(C)cc(C)c12" : what is its growth with 786-0 renal?
89.4% (inactive)

Kindly state the measured growth obtained for "COc1cc(-c2nn(C(C)(C)C)cc2-c2ccnc(NCCCNS(=O)(=O)c3ccc(Cl)cc3)n2)ccc1Cl" with 786-0 renal.
69% (inactive)

Lab note: need growth for CCc1ccc(SC2c3ccc(N(CC)CC)cc3Oc3nc(N)c(C#N)c(N)c32)cc1 (stereo not drawn) on 786-0 renal, anyone have it?
-89.2% (active)

***
What measured growth is associated with CC(=O)N1C(=S)NC(=O)C1CC(C)C (stereo not drawn) on 786-0 renal?
97.6% (inactive)

----------
tested on: NCI-H23 lung; test: NCI-60 one-dose screen, 48 h (100 = growth as untreated, 0 = no growth, -100 = all killed); details: 10 µM unless noted
About 83,000 compounds went through this panel and 20% of them were active in at least one assay; those are over-represented in the sample as a whole.
Metric name: growth (%)
Write the number in % without appending the unit.

Here's what some known entries look like.
Please look up its growth: "N#Cc1cccc(NC(=O)c2cc(-c3ccc(F)cc3F)ccc2O)c1"
2.72

I'd like to know its growth. The molecule in question is COc1ccc(/C=N/NC(=O)c2cn(C3CC3)c3c(OC)c(N4CC5CCCNC5C4)c(F)cc3c2=O)cc1 (centres undefined)
85.7

Suppose we examine the molecule CNC1CCc2c(sc(NC(=O)c3ccc(C(C)(C)C)cc3)c2C(N)=O)C1 (centres undefined) ; what growth value has been reported?
74.3

Would you mind telling me what growth value was observed for "Cn1ccnc1C(=O)/C=C/c1ccc(NC(=O)c2ccc(F)cc2)cc1" ?
13.4

Entry under review: "Cc1ccc(C2=Nn3c(nnc3-c3ccccc3)SC2)cc1" . Reported growth?
36.6

Bench note: what growth did "Cn1ccnc1C(=O)/C=C/c1ccc(CNC(=O)c2ccc(F)cc2)cc1" show?
5.81

Give the measured growth of "O=C1/C(=C/C=C/c2ccco2)SC(=S)N1C1CCCCC1" .
91.3

So what does the record say about growth for "Cc1[nH]c(C(=O)Nc2ccccc2OCc2cccc(C(=O)N3CCC[C@@H](N)C3)c2)c(Cl)c1Cl" ?
-80.6

Name the reported growth value associated with the molecule "CC(C)C[C@@H]1N[C@@]2(C(=O)Nc3ccccc32)[C@@H](c2ccc(F)cc2)[C@@H]1C(=O)c1ccc(O)cc1"
91.6

Please look up its growth: "COc1ccccc1NCc1cccn1Cc1ccc(F)cc1"
96.6

Further cases:
Which measured growth value corresponds to "COc1ccc(Cn2cc3c(c2-c2cc(OC)c(OC)c(OC)c2)CCc2c(CN4CCOCC4)noc2-3)cc1" ?
9.12

# growth lookup, item "COc1ccc(N2CCN(C3=C(Cl)C(=O)C(C)=C(C)C3=O)CC2)cc1"
106

What does the record list as growth for "NC(N)=Nc1ccc(Oc2cccc(Nc3ccc(Br)c(C(F)(F)F)c3)c2)cc1" ?
13.8

For the molecule Cc1ccc2c(c1)C13C(=C2Br)CCCN1C(=O)c1ccccc13 (centres undefined) , what growth is on record?
92.8

----------
system: SK-MEL-5 melanoma; test: NCI-60 one-dose screen, 48 h; conditions: 10 µM unless noted
Compounds without any hit were thinned out: in the full panel of roughly 83,000, 20% have a hit. The source made the active and inactive calls. The calls were made as follows: active = growth percent below 10; inactive = the rest.
Answer with one of the outcomes active, inactive

Per the assay record, what outcome was assigned to "Nc1nc(Nc2ccccc2SSc2ccccc2Nc2nc(N)nc(-c3cccc(Br)c3)n2)nc(-c2cccc(Br)c2)n1" ?
inactive

Dear all, I need the recorded test outcome for "COc1cccc(N2CCN(c3ncnc4c3[nH]c3ccc(F)cc34)C[C@H]2C)c1" , thank you.
active

Just curious, what result did "COc1cccc2cc(-c3cc4ccccc4[nH]3)/c(=N\NC(=O)c3ccc(Cl)cc3)oc12" get here?
inactive

Recorded test call requested for "COc1ccccc1N1CCN(C2=CC(=O)C(C)=C(C)C2=O)CC1"
inactive

Test call, this molecule: "O=C1[C@H]2Cc3c([nH]c4ccccc34)[C@@H](c3ccc(Cl)cc3)N2C(=O)CN1C1CCN(Cc2ccccc2)CC1"
inactive

For this molecule, state the assay outcome: "CS(=O)(=O)c1ccc(-n2cc(/C=N/O)c(-c3ccccc3)n2)cc1"
inactive

Write down the call the test reported for this molecule. Item: "COc1cc(-c2nn(C(C)(C)C)cc2-c2ccnc(NCCCNS(=O)(=O)c3ccccc3)n2)ccc1Cl"
inactive

Test call, this molecule: "O=C(O)c1ccc(-n2cc(CNc3cc(F)c(F)c(F)c3)c(-c3cccc(F)c3)n2)cc1"
inactive

Any idea what this test logged for "O=S(=O)(NCCNc1nccc(-n2cnc3ccccc32)n1)c1ccc(Br)cc1" ?
inactive

What did the test return for CCNC(=O)N1CCc2cc(OC)c(OCCc3ccc(OC)nc3)cc2C1c1ccc(OC)cc1C (centres undefined) ?
inactive

Further cases:
Record lookup: outcome of this test for "COc1ccc2c(c1)c(-c1cc(N)n3nc(-c4cn(C)c5ccc(OC)cc45)cc3n1)cn2C" ?
inactive

Look up the recorded call for "COc1cc(OC)cc(C(=O)Nc2sc3c(c2C(N)=O)CCC(=O)C3)c1" in this test.
inactive

Record request — test call for "COc1ccccc1-n1cc(C#N)c(N)c1C(=O)c1ccc(Cl)cc1"
inactive

Could you kindly confirm the outcome this assay logged for "CC1(C)CC[C@]23CC[C@]4(C)[C@H](CC[C@@H]5[C@@]6(C)CCCN(CO)C(C)(C)[C@@H]6CC[C@]54C)[C@H]2[C@H]1OC3" ?
inactive
